- target-or-system: human mAChR M4 (Homo sapiens)
- experimental-protocol: mAChR M4 cell-based functional assay (calcium flux), human M4
- condition-context: Table 11; % ACh maximum at 30 μM
Where a name gives a salt, the structure may show the parent alone.
quantity-name: Emax (%)
Record the value in %, omitting the unit from your answer.

The cases that follow already have their Emax on record.
CNC(=O)c1ccc(CNc2ncnc3c2sc2nnc(C)c(C)c23)cc1Cl [Compound 325]    78.8
Cc1cc(C(C)(C)O)ccc1CNc1ncnc2c1sc1nnc(C)c(C)c12 [Compound 335]    71.1
Cc1nnc2sc3c(NCc4ccc(C(=O)NC5CCCC5)c(Cl)c4)ncnc3c2c1C [Compound 317]    75.1
Cc1nnc2sc3c(N4CC[C@H](Oc5cccnc5)C4)ncnc3c2c1C [Compound 332]    80.5
Cc1nnc2sc3c(N4CC[C@@H](Oc5ccnc(C(F)(F)F)c5)C4)ncnc3c2c1C [Compound 337]    80.2
Cc1nnc2sc3c(N4CCC(COc5ccnc(Cl)c5)C4)ncnc3c2c1C (stereo not drawn) [Compound 347, dihydrochloride]    48.5
Cc1nnc2sc3c(N4CC[C@@H](Oc5ccnc(Cl)c5)C4)ncnc3c2c1C [Compound 336]    76.9
Cc1nnc2sc3c(N4CC[C@@H](Oc5cccnc5)C4)ncnc3c2c1C [Compound 340]    72.9
Cc1nnc2sc3c(N4CC[C@@H](C(C)(C)O)C4)ncnc3c2c1C [Compound 353]    48.8
Cc1nnc2sc3c(NCc4ccc5c(c4)COC5(C)C)ncnc3c2c1C [Compound 372]    94.7

Return reported Emax; argument: Cc1ccc(O[C@H]2CCN(c3ncnc4c3sc3nnc(C)c(C)c34)C2)cn1 [Compound 364, dihydrochloride] 50.7

Return reported Emax; argument: Cc1nnc2sc3c(NCc4cccc(-n5cccn5)c4)ncnc3c2c1C [Compound 328] 63.6

Return reported Emax; argument: [2H]C([2H])([2H])C(O)(c1ccc(CNc2ncnc3c2sc2nnc(C)c(C)c23)cc1)C([2H])([2H])[2H] [Compound 352] 103

---

- target-or-system: human mAChR M4 (Homo sapiens)
- experimental-protocol: mAChR M4 cell-based functional assay (calcium flux), human M4
- condition-context: Table 10; % ACh maximum at 30 μM
Structures can show the parent of a compound that is named as a salt.
Each entry below carries its reported Emax.

Cc1nnc2sc3c(NCc4ccc(C(=O)NC5CCC5)cc4)ncnc3c2c1C    74.9%
Cc1nnc2sc3c(NCc4ccc(C(=O)N(C)C5CC5)cc4)ncnc3c2c1C    90.4%

Kindly consider the entry below.
Return reported Emax; argument: Cc1cc(C)c2c(n1)oc1c(NC3CC3c3ccc(F)c(F)c3)ncnc12 (stereo not drawn) [Compound 294, hydrochloride] 56.3%

---

Each entry below carries its reported log10 of EC50.
- target-or-system: human mAChR M4 (Homo sapiens)
- experimental-protocol: mAChR M4 cell-based functional assay (calcium flux), human M4
- condition-context: Human M4 EC50 (nM), Table 11; calcium flux, PAM activity with EC20 acetylcholine
Where a name gives a salt, the structure may show the parent alone.
Annotation: log10 of EC50, nM basis.

The cases that follow already have their log10 of EC50 on record.
Cc1nnc2sc3c(NC4CC(O)(c5ccc(F)cc5)C4)ncnc3c2c1C (stereo not shown)    3.69
Cc1nnc2sc3c(N4CC[C@H](C(C)(C)O)C4)ncnc3c2c1C    2.56
Cc1nnc2sc3c(N4CC[C@H](Oc5ccnc(C(F)(F)F)c5)C4)ncnc3c2c1C    2.15
Cc1nnc2sc3c(NCc4ccc(C(C)(C)CO)cc4)ncnc3c2c1C    2.14

Return reported log10 of EC50; argument: Cc1nnc2sc3c(NCc4cccc(-c5ncccn5)c4)ncnc3c2c1C 3.25

Return reported log10 of EC50; argument: Cc1nnc2sc3c(NCc4ccc(C5COC5)cc4)ncnc3c2c1C 1.66

Return reported log10 of EC50; argument: Cc1nnc2sc3c(NCc4ccc(-c5ccnn5C)cc4F)ncnc3c2c1C 2.92

Return reported log10 of EC50; argument: Cc1cc(O[C@H]2CN(c3ncnc4c3sc3nnc(C)c(C)c34)C[C@@H]2C)ccn1 [Compound 358, dihydrochloride] 2.44

Return reported log10 of EC50; argument: Cc1cnn(C)c1-c1ccc(CNc2ncnc3c2sc2nnc(C)c(C)c23)cc1 3.04

Return reported log10 of EC50; argument: Cc1nnc2sc3c(N4CC[C@H](Oc5ccc(C#N)cc5)C4)ncnc3c2c1C [Compound 363, dihydrochloride] 2.47

---

- target-or-system: human mAChR M4 (Homo sapiens, UniProt P08173)
- Sequence (P08173 whole entry): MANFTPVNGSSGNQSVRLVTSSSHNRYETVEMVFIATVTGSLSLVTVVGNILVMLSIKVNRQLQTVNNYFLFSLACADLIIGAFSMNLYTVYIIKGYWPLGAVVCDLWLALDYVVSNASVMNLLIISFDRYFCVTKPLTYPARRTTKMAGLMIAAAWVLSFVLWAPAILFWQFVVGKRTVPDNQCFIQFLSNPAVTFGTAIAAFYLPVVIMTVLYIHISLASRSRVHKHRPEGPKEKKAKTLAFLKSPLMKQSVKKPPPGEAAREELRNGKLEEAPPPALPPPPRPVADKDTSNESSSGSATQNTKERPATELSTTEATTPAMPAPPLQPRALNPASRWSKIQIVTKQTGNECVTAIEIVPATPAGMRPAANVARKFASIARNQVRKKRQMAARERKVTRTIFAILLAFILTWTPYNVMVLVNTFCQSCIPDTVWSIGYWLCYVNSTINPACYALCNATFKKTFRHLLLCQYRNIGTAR
- experimental-protocol: mAChR M4 cell-based functional assay (calcium flux), human M4
- condition-context: Human M4 EC50 (nM), Table 11; calcium flux, PAM activity with EC20 acetylcholine
Structures can show the parent of a compound that is named as a salt.
quantity-name: log10 of EC50 (log10 of the value in nM)
Annotation: log10 of EC50, nM basis.

The cases that follow already have their log10 of EC50 on record.
Cc1nnc2sc3c(NCc4ccc(C(C)(C)N)cc4)ncnc3c2c1C [Compound 371]    1.62
CNC(=O)c1cc(CN(C)c2ncnc3c2sc2nnc(C)c(C)c23)ccc1F [Compound 333]    3.26
Cc1nnc2sc3c(N4CC[C@H](Oc5ccccn5)C4)ncnc3c2c1C [Compound 359, dihydrochloride]    2.69

Kindly consider the entry below.
Return reported log10 of EC50; argument: CCn1nccc1-c1ccc(CNc2ncnc3c2sc2nnc(C)c(C)c23)cc1 [Compound 343] 2.93

---

- target-or-system: human mAChR M4 (Homo sapiens)
- experimental-protocol: mAChR M4 cell-based functional assay (calcium flux), human M4
- condition-context: Human M4; % ACh maximum at 30 μM
Structures can show the parent of a compound that is named as a salt.
Each entry below carries its reported Emax.
The reply should consist of the numeric value with the unit placed after it.

The cases that follow already have their Emax on record.
Cc1nc2oc3c(NC4CC4c4ccc(F)c(F)c4)ncnc3c2c(C)c1Cl (stereo not shown) [Compound 51, hydrochloride]    70%
CNc1ncnc2c1oc1nc(C)c(Cl)c(C)c12 [Compound 44, hydrochloride]    39.8%
Cc1nnc2oc3c(NC4CC(F)(F)C4)ncnc3c2c1C [Compound 72]    57.9%
Cc1nnc2sc3c(N4CC(c5ccncc5)C4)ncnc3c2c1C [Compound 24]    62%
Cc1nnc2sc3c(N4CC(=O)C4)ncnc3c2c1C [Compound 36]    64%

Return reported Emax; argument: Cc1nnc2sc3c(N4CC5(COC5)C4)ncnc3c2c1C [Compound 13] 73%

Return reported Emax; argument: Cc1nnc2sc3c(NCc4ccc(-c5cccnc5F)cc4)ncnc3c2c1C [Compound 29] 61%

---

Each entry below carries its reported Emax.
- target-or-system: human mAChR M4 (Homo sapiens)
- experimental-protocol: mAChR M4 cell-based functional assay (calcium flux), human M4
- condition-context: Table 11; % ACh maximum at 30 μM
Where a name gives a salt, the structure may show the parent alone.
The reply should consist of the numeric value with the unit placed after it.

The cases that follow already have their Emax on record.
Cc1nnc2sc3c(N4CC[C@H](Oc5ccnc(Cl)c5)C4)ncnc3c2c1C    76.6%
Cc1nnc2sc3c(NCc4ccc(C(C)(O)CO)cc4)ncnc3c2c1C (centres unmarked)    98%
Cc1nnc2sc3c(N4CC(Oc5cccnc5)C4)ncnc3c2c1C [Compound 356, dihydrochloride]    32.8%
Cc1nnc2sc3c(NCc4ccc(C5COC5)cc4)ncnc3c2c1C    101%

Return reported Emax; argument: Cc1nnc2sc3c(N4CC[C@H](Oc5ccnc(C(F)(F)F)c5)C4)ncnc3c2c1C 80.6%

Return reported Emax; argument: Cc1nnc2sc3c(NCc4ccc(-c5cccn5C)cc4)ncnc3c2c1C 81.2%

Return reported Emax; argument: Cc1nnc2sc3c(N4CC[C@H](Oc5ccc(C#N)cc5)C4)ncnc3c2c1C [Compound 363, dihydrochloride] 64.8%

---

Each entry below carries its reported log10 of EC50.
- target-or-system: human mAChR M4 (Homo sapiens, UniProt P08173)
- experimental-protocol: mAChR M4 cell-based functional assay (calcium flux), human M4
- condition-context: Human M4 EC50 (nM), Table 10; calcium flux, PAM activity with EC20 acetylcholine
Counter-ions that a name gives are not always drawn.
Annotation: log10 of EC50, nM basis.

The cases that follow already have their log10 of EC50 on record.
CCC(O)(CC)c1ccc(CNc2ncnc3c2sc2nnc(C)c(C)c23)cc1 [Compound 144]    2.99
Cc1nc2sc3c(NCc4ccc(C(C)(C)O)cc4F)ncnc3c2c(C)c1Cl [Compound 279]    3.78
Cc1nnc2oc3c(NC4CCCC4)ncnc3c2c1C [Compound 304]    2.91
COCCN1CCN(c2ccc(CNc3ncnc4c3sc3nnc(C)c(C)c34)cc2)CC1 [Compound 120]    2.35
Cc1c(Cl)nnc2sc3c(NC4CN(c5ncc(C(F)(F)F)cn5)C4)ncnc3c12 [Compound 214]    2.62

Return reported log10 of EC50; argument: Cc1nnc2sc3c(NC4CC5(C4)CN(C(=O)c4ccc(C(F)(F)F)cc4)C5)ncnc3c2c1C [Compound 172] 3.47

Return reported log10 of EC50; argument: Cc1nc2sc3c(NCc4ccc(-n5ccnc5)cc4)ncnc3c2c(C)c1Cl [Compound 268, dihydrochloride] 3.50

Return reported log10 of EC50; argument: Cc1nnc2sc3c(NCc4ccc(F)c(C(=O)NC5CC5)c4)ncnc3c2c1C [Compound 176] 2.71

Return reported log10 of EC50; argument: Cc1nnc2oc3c(NC4CC4)ncnc3c2c1C [Compound 302] 3.11

Return reported log10 of EC50; argument: Cc1cc(C)c2c(n1)sc1c(N3CC(F)(F)C3)ncnc12 [Compound 198] 2.66

Return reported log10 of EC50; argument: Cc1c(Cl)cnc2sc3c(NC4CC4(C)C)ncnc3c12 (stereo not shown) [Compound 227] 2.82

The reported measurements were obtained from patent US10239887B2.
